# System: mRNA expressed from the genes (A) to (D) in rat liver
# RUN DESCRIPTION: Behavior of genes (mRNA expression level, oligo-DNA microarray) in rat liver after 28-day oral administration
# Type: in vivo
# TEST SETTINGS: gene group (C), Unigene No. Rn.4620
PROPERTY LABEL: Behavior of gene caused by administration of chemical substance, Gene No. 3929

{"COMPOUND": "Cl.ClCc1ccccn1 [TS033, 2-Chloromethylpyridine HCl]", "RECORDED VALUE": "−"}
{"COMPOUND": "O=C([O-])c1ccccc1.[Na+] [TS084, Sodium benzoate]", "RECORDED VALUE": "−"}
{"COMPOUND": "OC[C@@H](O)[C@@H](O)[C@H](O)[C@H](O)CO [TS009, D-Mannitol]", "RECORDED VALUE": "−"}
{"COMPOUND": "O=C(c1ccccc1)C(O)c1ccccc1 (centres unmarked) [TS038, Benzoin]", "RECORDED VALUE": "−"}
{"COMPOUND": "C[C@H](CCC(=O)O)[C@H]1CC[C@H]2[C@@H]3CC[C@@H]4C[C@H](O)CC[C@]4(C)[C@H]3CC[C@]12C [TS040, Lithocholic acid]", "RECORDED VALUE": "−"}
{"COMPOUND": "O=[N+]([O-])c1cccc2ccccc12 [TS083, 1-Nitronaphthalene]", "RECORDED VALUE": "+"}
{"COMPOUND": "IC(I)I [TS039, Iodoform]", "RECORDED VALUE": "−"}
{"COMPOUND": "O=C1CCCCCN1 [TS074, Caprolactam]", "RECORDED VALUE": "+"}
{"COMPOUND": "COc1ccc2c(c1)c(CC(=O)O)c(C)n2C(=O)c1ccc(Cl)cc1 [TS085, Indomethacin]", "RECORDED VALUE": "−"}
{"COMPOUND": "O=C1O[C@H]([C@@H](O)CO)C(O)=C1O [TS010, L-Ascorbic acid]", "RECORDED VALUE": "−"}
{"COMPOUND": "CC1CCC(C(C)C)C(O)C1 (racemic) [TS034, DL-Menthol]", "RECORDED VALUE": "−"}

====

# System: mRNA expressed from the genes (A) to (D) in rat liver
# RUN DESCRIPTION: Behavior of genes (mRNA expression level, oligo-DNA microarray) in rat liver after 28-day oral administration
# Type: in vivo
# TEST SETTINGS: gene group (C), Unigene No. Rn.1647
PROPERTY LABEL: Behavior of gene caused by administration of chemical substance, Gene No. 1741

{"COMPOUND": "Cc1ccc(N)cc1Cl [TS080, 3-Chloro-p-toluidine]", "RECORDED VALUE": "−"}
{"COMPOUND": "ClC1=C(Cl)[C@]2(Cl)[C@@H]3[C@@H]4C[C@@H]([C@H]5O[C@@H]45)[C@@H]3[C@@]1(Cl)C2(Cl)Cl [TS017, Dieldrin]", "RECORDED VALUE": "−"}
{"COMPOUND": "OC[C@@H](O)[C@@H](O)[C@H](O)[C@H](O)CO [TS009, D-Mannitol]", "RECORDED VALUE": "−"}
{"COMPOUND": "Cc1cc(N)ccc1N.O=S(=O)(O)O [TS060, 2,5-Toluenediamine SO4]", "RECORDED VALUE": "−"}
{"COMPOUND": "NC(=O)c1ccccc1C(N)=O [TS073, Phthalamide]", "RECORDED VALUE": "−"}
{"COMPOUND": "O=C([O-])c1ccccc1.[Na+] [TS084, Sodium benzoate]", "RECORDED VALUE": "−"}
{"COMPOUND": "Nc1ccc(N)c(Cl)c1.O=S(=O)(O)O [TS058, 2-Chloro-p-phenylenediamine SO4]", "RECORDED VALUE": "−"}
{"COMPOUND": "O=c1c(O)c(-c2ccc(O)c(O)c2)oc2cc(O)cc(O)c12 [TS037, Quercetin]", "RECORDED VALUE": "−"}
{"COMPOUND": "CC(=O)Nc1ccc(O)cc1 [TS031, Acetaminophen]", "RECORDED VALUE": "+"}
{"COMPOUND": "O=[N+]([O-])c1cccc2ccccc12 [TS083, 1-Nitronaphthalene]", "RECORDED VALUE": "+"}
{"COMPOUND": "Nc1cc([N+](=O)[O-])ccc1C(=O)O [TS082, 4-Nitroanthranilic acid]", "RECORDED VALUE": "+"}
{"COMPOUND": "O=C1CCCCCN1 [TS074, Caprolactam]", "RECORDED VALUE": "+"}
{"COMPOUND": "CC(=O)Oc1ccccc1C(=O)O [TS071, Aspirin]", "RECORDED VALUE": "−"}
{"COMPOUND": "O=C1O[C@H]([C@@H](O)CO)C(O)=C1O [TS010, L-Ascorbic acid]", "RECORDED VALUE": "−"}
{"COMPOUND": "CC1CCC(C(C)C)C(O)C1 (racemic) [TS034, DL-Menthol]", "RECORDED VALUE": "−"}
{"COMPOUND": "IC(I)I [TS039, Iodoform]", "RECORDED VALUE": "+"}
{"COMPOUND": "C[C@H](CCC(=O)O)[C@H]1CC[C@H]2[C@@H]3CC[C@@H]4C[C@H](O)CC[C@]4(C)[C@H]3CC[C@]12C [TS040, Lithocholic acid]", "RECORDED VALUE": "−"}
{"COMPOUND": "CCC[N+](=O)[O-] [TS036, 1-Nitropropane]", "RECORDED VALUE": "+"}
{"COMPOUND": "Clc1ccc(C(c2ccc(Cl)cc2)C(Cl)(Cl)Cl)cc1 [TS016, Dichloro-diphenyl-trichloroethane]", "RECORDED VALUE": "+"}
{"COMPOUND": "Nc1ccc([N+](=O)[O-])cc1N [TS035, 4-Nitro-o-phenylenediamine]", "RECORDED VALUE": "+"}
